Target: Cdc42 (cell division cycle 42) (Homo sapiens)
Construct: recombinant Cdc42 protein (230-00660-100, RayBio)
Sequence (P60953 1-188): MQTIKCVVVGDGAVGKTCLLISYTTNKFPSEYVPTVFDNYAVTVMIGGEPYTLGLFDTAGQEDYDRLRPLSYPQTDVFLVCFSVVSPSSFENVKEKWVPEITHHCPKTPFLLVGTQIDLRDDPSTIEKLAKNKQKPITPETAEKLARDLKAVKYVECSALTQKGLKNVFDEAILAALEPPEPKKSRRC
Assay: SPR (Biacore 8K, Cdc42 immobilized on CM5 chip), positive control
Type: binding
Measurement label: pKd
Kindly note that pKd refers to -log10 of the concentration in mol/L and answer with the value alone.

Look up pKd: Cc1cc(C)nc(NS(=O)(=O)c2ccc(NC(=S)NC(=O)COc3ccc(Br)cc3Cl)cc2)n1 [ZCL278] 4.73
